Target: human growth hormone secretagogue receptor (hGHS-R1a) (Homo sapiens, UniProt Q92847)
Construct: purchased PerkinElmer BioSignal #RBHGHSM; host or cells: HEK-293, stably transfected
Sequence (Q92847 whole entry): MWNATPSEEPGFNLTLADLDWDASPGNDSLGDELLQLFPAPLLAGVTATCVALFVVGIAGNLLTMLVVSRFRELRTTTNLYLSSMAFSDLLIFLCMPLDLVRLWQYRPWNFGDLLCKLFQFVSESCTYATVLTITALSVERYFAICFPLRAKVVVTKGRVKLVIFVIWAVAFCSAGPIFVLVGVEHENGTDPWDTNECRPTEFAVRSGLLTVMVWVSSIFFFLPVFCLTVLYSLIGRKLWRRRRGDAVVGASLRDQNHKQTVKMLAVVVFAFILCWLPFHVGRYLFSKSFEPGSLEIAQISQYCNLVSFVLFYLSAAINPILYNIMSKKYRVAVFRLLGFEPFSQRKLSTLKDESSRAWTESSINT
Assay: Competitive radioligand binding assay (ghrelin receptor), [125I]-ghrelin displacement on GHS-R/HEK 293 membranes
Conditions: Table 4; TFA salts unless otherwise noted; read-out: Ki
attribute_measured: Ki

Study these solved cases before continuing.
molecule: CCC[C@@H]1NCCOc2ccccc2CCCNC(=O)[C@@H](Cc2ccccc2)NC(=O)CN(C)C1=O
Ki: 10 to 100 nM
--
molecule: CCC(C)C1NCCOc2ccccc2CCCNC(=O)C(Cc2ccc(F)cc2)NC(=O)C(C)N(C)C1=O (stereo not shown)
Ki: 0.1 to 10 nM
--
molecule: CC(C)[C@@H]1NCCOc2ccccc2CCCNC(=O)[C@@H](Cc2ccccc2)NC(=O)CN(C)C1=O
Ki: 100 to 1000 nM
--
molecule: CCCC[C@@H]1NCCOc2ccccc2CCCNC(=O)[C@@H](Cc2ccccc2)NC(=O)CN(C)C1=O
Ki: 10 to 100 nM
--
molecule: CC[C@H](C)[C@@H]1NCCOc2ccc(F)cc2CCCNC(=O)[C@H](Cc2cccc(Cl)c2)NC(=O)C2(CCCC2)NC1=O
Ki: 10 to 100 nM

Recorded Ki for C[C@@H]1C(=O)N[C@H](Cc2ccc(C(F)(F)F)cc2)C(=O)NCCCc2ccccc2OCCN[C@@H](C2CC2)C(=O)N1C , please? 0.1 to 10 nM

Recorded Ki for CC[C@H](C)[C@@H]1NCCCCCCCCNC(=O)[C@H](Cc2cccc(Cl)c2)NC(=O)C2(CCCC2)NC1=O , please? 100 to 1000 nM

###

Below, each entry is listed with its recorded pKi.
Target: human growth hormone secretagogue receptor (hGHS-R1a) (Homo sapiens)
Construct: purchased PerkinElmer BioSignal #RBHGHSM; host or cells: HEK-293, stably transfected
Test: Competitive radioligand binding assay (ghrelin receptor), [125I]-ghrelin displacement on GHS-R/HEK 293 membranes
Settings: Binding activity at the human ghrelin receptor, [125I]-ghrelin displacement; read-out: Ki
pKi: −log10 of the molar value.

Study these solved cases before continuing.
compound: CC(C)C[C@@H]1NCCOc2ccccc2CCCNC(=O)[C@H](Cc2ccccc2)NC(=O)C2(CC2)NC1=O [compound 111]
result: 6.00 to 7.00

compound: CCCC[C@@H]1NCCOc2ccccc2CCCNC(=O)[C@@H](Cc2ccccc2)NC(=O)CN(C)C1=O [Compound 1]
result: 7.00 to 8.00

compound: CC(C)C[C@@H]1NCCOc2ccccc2CCCNC(=O)[C@@H](Cc2ccccc2)NC(=O)C2(CCCC2)NC1=O [compound 97]
result: 6.00 to 7.00

compound: CC(C)[C@@H]1NCCOc2ccccc2/C=C/CNC(=O)[C@H](Cc2ccccc2)NC(=O)C2(CCOCC2)NC1=O [compound 140]
result: 6.00 to 7.00

The record that follows has no pKi shown yet.
Recorded pKi for CC(C)C[C@@H]1NCCOc2ccccc2/C=C/CNC(=O)[C@H](Cc2cccc(Cl)c2)NC(=O)C2(CCCC2)NC1=O [compound 21] , please? 8.00 to 10.00

###

Below, each entry is listed with its recorded pKi.
Biological target: human growth hormone secretagogue receptor (hGHS-R1a) (Homo sapiens, UniProt Q92847)
Construct: purchased PerkinElmer BioSignal #RBHGHSM; host or cells: HEK-293, stably transfected
Experiment: Competitive radioligand binding assay (ghrelin receptor), [125I]-ghrelin displacement on GHS-R/HEK 293 membranes;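 as to Binding Activity at the Human Ghrelin Receptor (Ki): symbols B 10-100 nM C 0.1-1 µM D 1-10 µM F above 1 µM G above 10 µM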
Details: [125I]-ghrelin displacement, GHS-R/HEK 293 membranes; class symbols; read-out: Binding Activity at the Human Ghrelin Receptor (Ki)
pKi: −log10 of the molar value.

Study these solved cases before continuing.
structure: CC(C)[C@@H]1NCCOc2ccccc2/C=C/CNC(=O)[C@H](Cc2ccccc2)NC(=O)C2(CCCC2)NC1=O
result: 7.00 to 8.00
--
structure: CCC[C@H]1C(=O)N(C)[C@H](C)C(=O)N[C@H](Cc2ccccc2)C(=O)NCCCc2ccccc2OCCN1C(C)=O
result: < 5.00

Identify the measured pKi of CC(C)C[C@@H]1NCCOc2ccccc2/C=C/CNC(=O)[C@H](C(c2ccccc2)c2ccccc2)NC(=O)C2(CCCC2)NC1=O for human growth hormone secretagogue receptor (hGHS-R1a) (Homo sapiens, UniProt Q92847). < 6.00

###

Assay: Pharmacokinetic analysis in rats (i.v., s.c., p.o.)
Type: in vivo
Conditions: male, Sprague-Dawley, plasma, iv, 2 mg/kg, rat, read-out: Elimination (t1/2, min)
attribute_measured: half-life (min)
The reply should contain only the number, in min.

Recorded half-life for CCC(C)[C@@H]1NCCOc2ccccc2CCCNC(=O)[C@@H](Cc2ccc(Cl)cc2)NC(=O)[C@@H](C)N(C)C1=O (stereo partly shown) , please? 31

###

Biological target: human growth hormone secretagogue receptor (hGHS-R1a) (Homo sapiens, UniProt Q92847)
Construct: purchased PerkinElmer BioSignal #RBHGHSM; host or cells: HEK-293, stably transfected
Experiment: Competitive radioligand binding assay (ghrelin receptor), [125I]-ghrelin displacement on GHS-R/HEK 293 membranes
Settings: Binding activity at the human ghrelin receptor, [125I]-ghrelin displacement; read-out: Ki
pKi: −log10 of the molar value.
Below, each entry is listed with its recorded pKi.

Study these solved cases before continuing.
compound: CC(C)C[C@@H]1NCCOc2ccccc2/C=C/CNC(=O)[C@H](Cc2cccc3ccccc23)NC(=O)C2(CCCC2)NC1=O
pKi: 7.00 to 8.00
//
compound: CCC(C)C1NCCOc2ccccc2CCCNC(=O)C(Cc2ccc(F)cc2)NC(=O)C(C)N(C)C1=O (centres unmarked)
pKi: 8.00 to 10.00
//
compound: O=C1NC2(CCCC2)C(=O)N[C@@H](Cc2ccccc2)C(=O)NC/C=C/c2ccccc2OCCN[C@H]1Cc1cscn1
pKi: 6.00 to 7.00

Recorded pKi for CC[C@H](C)[C@@H]1NCCOc2ccccc2CCCNC(=O)[C@@H](Cc2ccccc2)NC(=O)[C@@H](C(C)C)N(C)C1=O , please? 6.00 to 7.00

Recorded pKi for CCC[C@@H]1NCCOc2ccccc2CCCNC(=O)CNC(=O)CN(C)C1=O , please? < 5.00

Recorded pKi for CC[C@H](C)[C@@H]1NCCOc2ccccc2CCCNC(=O)[C@@H](Cc2cscn2)NC(=O)[C@@H](C)N(C)C1=O , please? 6.00 to 7.00

Recorded pKi for C[C@@H]1C(=O)N[C@H](Cc2ccccc2)C(=O)NCCCc2ccccc2OCCNC2(CC2)C(=O)N1C , please? < 5.00

Recorded pKi for CCC[C@@H]1NCCOc2ccccc2CCCNC(=O)[C@@H](Cc2ccccc2)NC(=O)CNC1=O , please? 6.00 to 7.00

Recorded pKi for CCC[C@@H]1NCCOc2ccccc2CCCNC(=O)[C@@H](Cc2ccccc2)NC(=O)CN(C)C1=O , please? 7.00 to 8.00

###

Target: human growth hormone secretagogue receptor (hGHS-R1a) (Homo sapiens, UniProt Q92847)
Construct: purchased PerkinElmer BioSignal #RBHGHSM; host or cells: HEK-293, stably transfected
Assay: Competitive radioligand binding assay (ghrelin receptor), [125I]-ghrelin displacement on GHS-R/HEK 293 membranes
Settings: Binding activity at the human ghrelin receptor, [125I]-ghrelin displacement; read-out: Ki
pKi: −log10 of the molar value.
Below, each entry is listed with its recorded pKi.

compound: CCC[C@@H]1NCCOc2ccccc2/C=C/CNC(=O)[C@H](Cc2ccccc2)NC(=O)C2(CCCC2)NC1=O
pKi: 7.00 to 8.00
//
compound: NCCCC[C@@H]1NCCOc2ccccc2CCCNC(=O)[C@H](Cc2ccccc2)NC(=O)C2(CCCC2)NC1=O
pKi: < 5.00
//
compound: CCC[C@@H]1NCCOc2ccccc2CCCNC(=O)[C@@H](Cc2ccccc2)NC(=O)C(C)(C)NC1=O
pKi: 6.00 to 7.00

The record that follows has no pKi shown yet.
Recorded pKi for CC(C)C1NCCOc2ccccc2/C=C/CNC(=O)C(Cc2ccccc2)NC(=O)C2(Cc3ccccc3C2)NC1=O (stereo not shown) , please? 6.00 to 7.00

###

Biological target: hGHS-R1a (Homo sapiens, UniProt Q92847)
Experiment: hGHS-R1a receptor agonism and desensitization by FLIPR in HEK293 cells
Settings: FLIPR, HEK293 cells expressing hGHS-R1a, FIG. 13A
attribute_measured: EC50 (nM)
The reply should contain only the number, in nM.

Identify the measured EC50 of CC1C(=O)NC(Cc2ccc(F)cc2)C(=O)NCCCc2ccccc2O[C@H](C)CNC(C2CC2)C(=O)N1C (stereo partly shown) for hGHS-R1a (Homo sapiens, UniProt Q92847). 5

###

Below, each entry is listed with its recorded Ki.
Target: human growth hormone secretagogue receptor (hGHS-R1a) (Homo sapiens)
Construct: purchased PerkinElmer BioSignal #RBHGHSM; host or cells: HEK-293, stably transfected
Assay: Competitive radioligand binding assay (ghrelin receptor), [125I]-ghrelin displacement on GHS-R/HEK 293 membranes;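 as to Binding Activity at the Human Ghrelin Receptor (Ki): symbols B 10-100 nM C 0.1-1 µM D 1-10 µM F above 1 µM G above 10 µM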
Details: [125I]-ghrelin displacement, GHS-R/HEK 293 membranes; class symbols; read-out: Binding Activity at the Human Ghrelin Receptor (Ki)

Study these solved cases before continuing.
compound: CC[C@H](C)[C@@H]1NCCOCC=CCNC(=O)[C@@H](Cc2ccccc2)NC(=O)[C@@H](C)N(C)C1=O
result: 100 to 1000 nM
--
compound: C[C@@H]1C(=O)N[C@H](Cc2ccccc2)C(=O)NCCCc2ccccc2OCCN2CCCC[C@H]2C(=O)N1C
result: 10 to 100 nM
--
compound: CCC(C)C1NCCOc2ccccc2CCCNC(=O)C(Cc2ccccc2)NC(=O)C(COC(C)(C)C)NC1=O (stereo not shown)
result: 1000 to 10000 nM
--
compound: CCC[C@@H]1NCCOc2ccccc2CCCNC(=O)[C@@H](Cc2ccccc2)NC(=O)[C@H]2CCCN2C1=O
result: 100 to 1000 nM
--
compound: CC(C)C1NCCOc2ccccc2CCCNC(=O)C(Cc2ccccc2)NC(=O)C2(CCNCC2)NC1=O (stereo not shown)
result: > 10000 nM

Recorded Ki for CCC[C@@H]1NCCOc2ccccc2CCCNC(=O)[C@@H](Cc2ccccc2)NC(=O)[C@@H]2CCCN2C1=O , please? 1000 to 10000 nM

Recorded Ki for CC(C)C[C@@H]1NCCOc2ccccc2CCCNC(=O)[C@H](Cc2ccccc2)NC(=O)[C@H]2CCCN2C1=O , please? 1000 to 10000 nM

The measured values listed here are drawn from patent US20180110824A1.
